# MIC values compiled below
Tested on: Mycobacterium tuberculosis
Test: Antituberculosis activity against Mycobacterium tuberculosis Erdman by microplate alamar blue assay
Assay type: functional
Write the value in µg/mL as a bare number.

Field request: MIC | item: C=C[C@@H](O)C#CC#C[C@@H](O)/C=C\CCCCCCC [FALCARINDIOL]
6.2

Same for CCCCCCC/C=C\[C@H](O)C#CC#C[C@@H](O)CC [OPLOPANDIOL]
61.5

Taken from ChEMBL document CHEMBL1157082.
